Listing of recorded viability, T/C by entry.
test system: 323965-272-R-J2-PDC complex spheroid viability; test: Anticancer human tumor 323965-272-R-J2-PDC patient-derived pancreatic carcinoma cell line growth inhibition [CLK]; conditions: second compound 3.16 µM; first compound 10 µM; stronger effect = lower value;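 note: spheroids exposed to agents for seven days before readout; percent of DMSO vehicle control wells so 100% = untreated growth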

Previously resolved entries follow.
1) COc1ccc([C@@H](O)c2cc(-c3ncnc4cc(N5CCOCC5)ccc34)c(F)cc2Cl)nn1 + CNC(=O)c1ccc(Nc2nc(OC3CCCC3)c3c(-c4ccc5nc(C)oc5c4)c[nH]c3n2)c(OC)c1 = 26.8%
2) O=C(c1cc(Cc2n[nH]c(=O)c3ccccc23)ccc1F)N1CCN(C(=O)C2CC2)CC1 + CNC(=O)c1ccc(Nc2nc(OC3CCCC3)c3c(-c4ccc5nc(C)oc5c4)c[nH]c3n2)c(OC)c1 = 48.8%
3) O=c1[nH]cc(F)c(=O)[nH]1 + CNC(=O)c1ccc(Nc2nc(OC3CCCC3)c3c(-c4ccc5nc(C)oc5c4)c[nH]c3n2)c(OC)c1 = 27.2%
4) C#Cc1c(F)ccc2cc(O)cc(-c3ncc4c(N5CC6CCC(C5)N6)nc(OCC56CCCN5CC(F)C6)nc4c3F)c12 (stereo not given) + CN1CCN(c2cc(C(=O)Nc3cc4cc(-c5cnn(C)c5)ccc4cn3)ccn2)CC1 = 5.09%

Please turn your attention to the following entry.
// viability, T/C lookup, key: C=C(F)C(=O)N1CCN(c2nc(OCC3CCCN3C)nc3c2CCN(c2cccc4cccc(Cl)c24)C3)CC1CC#N (stereo not given) + CN1CCN(c2cc(C(=O)Nc3cc4cc(-c5cnn(C)c5)ccc4cn3)ccn2)CC1 0.62%
